Assay: Phase I trial of oral PCLX-001: plasma pharmacokinetics, noncompartmental analysis (Phoenix WinNonlin 8.3)
Format: in vivo, human
Conditions: human, plasma, po, 20 mg, Table 1A; Patient 115-002-002 (Patient 2); Day 15; 20 mg oral daily
Observed Property: Cmax (ng/mL)

• Cc1c(NS(=O)(=O)c2c(Cl)cc(-c3ccnc(N4CCNCC4)c3)cc2Cl)c(CC(C)C)nn1C = 215

* * *

Experiment: Phase I trial of oral PCLX-001: plasma pharmacokinetics, noncompartmental analysis (Phoenix WinNonlin 8.3)
Assay type: in vivo, human
Settings: human, plasma, po, 140 mg, Table 10; Patient 115-024-005; Day 1; Dose 140 mg QD oral; Concomitant Pantoprazole Yes
Observed Property: Cmax (ng/mL)

* Cc1c(NS(=O)(=O)c2c(Cl)cc(-c3ccnc(N4CCNCC4)c3)cc2Cl)c(CC(C)C)nn1C | 406

* * *

Assay: Phase I trial plasma pharmacokinetics, two-compartment model (PK Solver 2.0)
Assay type: in vivo
Details: human, oral, 20 mg, Table 1B third line, Patient 115-002-001, Day 15 as printed
Observed Property: AUC(0-inf) (ng·h/mL)

* Cc1c(NS(=O)(=O)c2c(Cl)cc(-c3ccnc(N4CCNCC4)c3)cc2Cl)c(CC(C)C)nn1C | 2360

* * *

Test: Phase I trial of oral PCLX-001: plasma pharmacokinetics, noncompartmental analysis (Phoenix WinNonlin 8.3)
Format: in vivo, human
Conditions: human, plasma, po, 20 mg, Table 6; Patient 115-002-004; Day 1; 20 mg QD oral; Pantoprazole No; read-out: AUClast or AUCtau
Observed Property: AUC(0-t) (ng·h/mL)

* Cc1c(NS(=O)(=O)c2c(Cl)cc(-c3ccnc(N4CCNCC4)c3)cc2Cl)c(CC(C)C)nn1C | 1780

* * *

Assay: Phase I trial of oral PCLX-001: plasma pharmacokinetics, noncompartmental analysis (Phoenix WinNonlin 8.3)
Type: in vivo, human
Details: human, plasma, po, 100 mg, Table 9; Patient 115-002-012; Day 15; 100 mg QD oral; Pantoprazole No; read-out: Half-life (converted)
Observed Property: half-life (h)

* Cc1c(NS(=O)(=O)c2c(Cl)cc(-c3ccnc(N4CCNCC4)c3)cc2Cl)c(CC(C)C)nn1C | 7.56

* * *

Experiment: Phase I trial of oral PCLX-001: plasma pharmacokinetics, noncompartmental analysis (Phoenix WinNonlin 8.3)
Format: in vivo, human
Conditions: human, plasma, po, 100 mg, Table 9; Patient 115-002-012; Day 15; 100 mg QD oral; Pantoprazole No; read-out: Tmax
Source text: The clinical trial is entitled “Phase I Trial of PCLX-001 in B-cell Non-Hodgkin Lymphoma and Advanced Solid Malignancies” and registered at clinicaltrials.gov as NCT04836195. It is a phase I dose-escalation study of oral PCLX-001, conducted in a multicenter, non-randomized, open-label, non-controlled design. The study is comprised of two parts: Part A (single-agent dose escalation) and Part B (single-agent expansion cohorts). […]
Observed Property: Tmax (h)

- Cc1c(NS(=O)(=O)c2c(Cl)cc(-c3ccnc(N4CCNCC4)c3)cc2Cl)c(CC(C)C)nn1C: 2

* * *

Assay: Phase I trial of oral PCLX-001: plasma pharmacokinetics, noncompartmental analysis (Phoenix WinNonlin 8.3)
Assay type: in vivo, human
Settings: human, plasma, po, 40 mg, Table 7; Patient 115-002-006; Day 15; 40 mg QD oral; Pantoprazole Yes; read-out: Tmax
Observed Property: Tmax (h)

* Cc1c(NS(=O)(=O)c2c(Cl)cc(-c3ccnc(N4CCNCC4)c3)cc2Cl)c(CC(C)C)nn1C | 4

Cited source: patent US20250161299A1
